Reported IC50 by item:
Biological target: T1, human TNFR2 (Novoprotein, Cat #C830) (human, UniProt P20333 23-257, limits assumed)
T1 construct: construct not described; also called human TNFR2 protein
T1 sequence (looked up): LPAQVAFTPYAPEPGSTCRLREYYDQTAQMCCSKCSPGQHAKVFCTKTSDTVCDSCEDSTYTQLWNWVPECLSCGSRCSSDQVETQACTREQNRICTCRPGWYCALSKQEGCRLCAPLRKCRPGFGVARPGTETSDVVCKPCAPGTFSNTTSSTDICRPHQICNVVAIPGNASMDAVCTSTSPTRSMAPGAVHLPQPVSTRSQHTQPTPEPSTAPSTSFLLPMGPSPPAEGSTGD
Assay: competition ELISA, human TNFR2 coated, competitor human TNFα-Biotin
Please give a number only; it is taken to be in µg/mL.

Solved entries:
{"columns": ["Binder", "Result number"],
 "data": [
  ["224-Hu6 (antibody, V domains shown, Humanized form of #224; also called VH8 + VL7) VH: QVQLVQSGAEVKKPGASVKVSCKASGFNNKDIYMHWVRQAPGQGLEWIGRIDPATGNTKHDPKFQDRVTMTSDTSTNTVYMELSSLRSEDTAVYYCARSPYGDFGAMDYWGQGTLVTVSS VL: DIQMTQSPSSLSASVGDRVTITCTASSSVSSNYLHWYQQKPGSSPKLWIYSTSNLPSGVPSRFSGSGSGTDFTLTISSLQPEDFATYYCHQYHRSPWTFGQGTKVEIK", 0.439],
  ["224-Hu7 (antibody, V domains shown, Humanized form of #224; also called VH9 + VL10) VH: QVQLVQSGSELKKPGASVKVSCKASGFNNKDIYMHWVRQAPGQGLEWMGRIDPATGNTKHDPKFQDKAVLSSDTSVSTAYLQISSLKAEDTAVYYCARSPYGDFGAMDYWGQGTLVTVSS VL: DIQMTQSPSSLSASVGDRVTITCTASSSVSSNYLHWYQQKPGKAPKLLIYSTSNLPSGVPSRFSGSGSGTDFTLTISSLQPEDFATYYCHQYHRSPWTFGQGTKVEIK", 0.561]
]}

Quick note, IC50 for 001-Hu1 (antibody, V domains shown, Humanized form of #001; also called VH1 + VL1) VH: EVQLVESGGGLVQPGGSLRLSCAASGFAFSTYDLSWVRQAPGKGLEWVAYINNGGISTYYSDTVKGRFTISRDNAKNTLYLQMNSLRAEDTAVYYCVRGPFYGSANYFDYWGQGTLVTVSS VL: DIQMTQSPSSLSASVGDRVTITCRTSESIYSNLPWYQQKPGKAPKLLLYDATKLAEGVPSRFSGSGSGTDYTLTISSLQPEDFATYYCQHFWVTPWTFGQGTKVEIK landed at 0.573
